Target: UniProt O00574
Test: potency against CXCR6 with APJ panel – cell-based, beta-arrestin, DiscoveRx, uHTS hits, dose response (AID 624129)
Conditions: CXCR6 beta-arrestin (DiscoveRx) antagonist cell assay, CXCR6, dose range 1
The source made the active and inactive calls. How the calls were made is not given here.
QUANTITY: outcome

> print(dat)
                                    compound  test.value
 1  CC1=C(C)CC2C(C1)C(=O)c1ccc(Br)cc1S2(=O)=O (stereo not given)    inactive
 2  COC(=O)c1ccc(NC(=O)c2nc(S(=O)(=O)Cc3cccc(C)c3)ncc2Cl)cc1    inactive
 3  NC(=S)NN=C1c2cc(Cl)ccc2-c2c1cc(Cl)cc2[N+](=O)[O-]    inactive
 4  Cc1cccc(CS(=O)(=O)c2ncc(Cl)c(C(=O)NCc3ccccc3)n2)c1    inactive
 5   Cc1ccc(NC(=S)NNc2ncc(C(F)(F)F)cc2Cl)cc1    inactive
 6  C=C1C(=O)[C@]23C[C@H]1CCC2[C@@]1(C)C(C[C@@H]3O)[C@](C)(C(=O)OC)CC[C@@H]1O (stereo not given in full)    inactive
 7  COC(=O)c1cc([N+](=O)[O-])c(-n2cncn2)c([N+](=O)[O-])c1    inactive
 8     Cc1ccc(-n2c(SCCN)nnc2-c2cccc(C)c2)cc1    inactive
 9  O=C(Nc1ccccc1Oc1ccccc1)[C@@H]1O[C@H](CO)[C@H](O)[C@H](O)[C@H]1O    inactive
10  Cc1ccc(NC(=O)c2nc(S(=O)(=O)Cc3ccccc3C)ncc2Cl)cc1C    inactive

---

Target: C-X-C chemokine receptor type 6 (Homo sapiens) (UniProt O00574)
Sequence (O00574 whole entry, looked up): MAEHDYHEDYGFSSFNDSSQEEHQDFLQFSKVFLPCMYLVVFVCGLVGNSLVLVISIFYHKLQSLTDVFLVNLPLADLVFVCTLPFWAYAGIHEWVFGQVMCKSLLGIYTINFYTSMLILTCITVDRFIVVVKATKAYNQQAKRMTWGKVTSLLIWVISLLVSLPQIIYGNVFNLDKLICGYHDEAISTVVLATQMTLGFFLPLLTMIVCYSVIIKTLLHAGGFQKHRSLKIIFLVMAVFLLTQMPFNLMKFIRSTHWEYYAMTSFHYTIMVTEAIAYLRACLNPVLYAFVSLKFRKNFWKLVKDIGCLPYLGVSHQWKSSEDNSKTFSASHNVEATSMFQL
Assay: potency against CXCR6 with APJ panel – cell-based, beta-arrestin, DiscoveRx, uHTS hits, dose response (AID 624129)
Settings: CXCR6 beta-arrestin (DiscoveRx) antagonist cell assay, CXCR6, run 2, dose range 1
pIC50: −log10 of the molar value.
If the reported pIC50 equals or exceeds 5, assign met. If not, assign not met.

> print(dat)
                                   molecule                     target.or.test.system  category.label
1  Cc1ccnc(N2C(=O)c3cccc4c([N+](=O)[O-])ccc(c34)C2=O)c1  C-X-C chemokine receptor type 6 (Homo sapiens) (UniProt O00574)             met
2  CN(CCO)c1cc(Sc2nc3ccccc3s2)c2nonc2c1[N+](=O)[O-]  C-X-C chemokine receptor type 6 (Homo sapiens) (UniProt O00574)             met
3  N#CC(C#N)=C1C=CC=CN1/C(=C\c1ccco1)C(=O)c1ccc(Br)cc1  C-X-C chemokine receptor type 6 (Homo sapiens) (UniProt O00574)         not met
4                    Oc1c(I)cc(Cl)c2cccnc12  C-X-C chemokine receptor type 6 (Homo sapiens) (UniProt O00574)             met
5  FC(F)(F)c1cnc(NNC(=S)Nc2ccc(Cl)cc2)c(Cl)c1  C-X-C chemokine receptor type 6 (Homo sapiens) (UniProt O00574)         not met
6  CCOc1ccc(N(CC(=O)N/N=C/c2ccccn2)S(=O)(=O)c2ccc(Cl)cc2)cc1  C-X-C chemokine receptor type 6 (Homo sapiens) (UniProt O00574)         not met
7  Cc1ccc(CN2C(=O)C(Cc3ccccc3)Nc3ncnc(N4CCN(c5ccccc5)CC4)c32)cc1 (stereo not given)  C-X-C chemokine receptor type 6 (Homo sapiens) (UniProt O00574)             met

---

Target: C-X-C chemokine receptor type 6 (Homo sapiens) (UniProt O00574)
Test: potency against CXCR6 with APJ panel – cell-based, beta-arrestin, DiscoveRx, uHTS hits, dose response (AID 624129)
Conditions: CXCR6 beta-arrestin (DiscoveRx) antagonist cell assay, CXCR6, run 2, dose range 2
pIC50: −log10 of the molar value.
# binarize pIC50: threshold 5 inclusive, high side fulfilled, low side not fulfilled

> print(dat)
                                    molecule  category.label
 1  COC(=O)c1ccccc1-c1c2ccc(=N)cc-2oc2cc(N)ccc12   not fulfilled
 2  COc1ccc(-c2nn(C)c(=O)c3ccccc23)cc1NC(=O)Cn1nc(C)c2ccccc2c1=O   not fulfilled
 3  O=[N+]([O-])c1cc(-c2ncccn2)c([N+](=O)[O-])s1   not fulfilled
 4   COc1cccc(-c2nnc(NC(=O)c3ccc(Cl)s3)o2)c1   not fulfilled
 5  O=C(N/N=C/c1ccc([N+](=O)[O-])o1)c1sc2ccccc2c1Cl   not fulfilled
 6              O=C(CSc1cccc2cccnc12)N1CCCC1       fulfilled
 7  O=C1c2cccc3c([N+](=O)[O-])ccc(c23)C(=O)N1c1ccc(Cl)cn1   not fulfilled
 8  O=C(COC(=O)C1CCN(S(=O)(=O)c2cccs2)CC1)c1cc2ccccc2o1   not fulfilled
 9  COC(=O)CSc1[nH]c2ccc(Br)cc2c1[N+](=O)[O-]   not fulfilled
10  COc1ccc(NC(=O)/C(Cl)=C(/Cl)S(=O)Cc2ccccc2)cn1 (stereo unspecified)       fulfilled
11  Cc1ccc(NC(=S)N/N=C/c2ccc([N+](=O)[O-])s2)cc1       fulfilled
12       O=C(CSc1cccc2cccnc12)N/N=C/c1cccnc1       fulfilled
13  Cc1cccc(CS(=O)(=O)c2ncc(Cl)c(C(=O)NCc3ccc4c(c3)OCO4)n2)c1   not fulfilled
14  CCC(=O)OCCNc1cc(Sc2nccn2C)c2nonc2c1[N+](=O)[O-]       fulfilled
15  Cc1ccc(P(=O)(c2ccc(C)cc2)[C@@H](NC(c2ccccc2)c2ccccc2)c2ccccc2)cc1   not fulfilled
16    CCn1c(=O)c([N+](=O)[O-])c(Cl)c2ccccc21       fulfilled
17  CC(=O)OCCNc1cc(Sc2nc3ccccc3[nH]2)c2nonc2c1[N+](=O)[O-]       fulfilled

---

Target: C-C chemokine receptor type 6 (Homo sapiens)
Assay: potency against CXCR6 with APJ panel – cell-based, beta-arrestin, DiscoveRx, uHTS hits, dose response (AID 624129)
Conditions: CXCR6 beta-arrestin (DiscoveRx) antagonist cell assay, CCR6, dose range 1, mean IC50 across replicates
Categories are defined by ranges of IC50, namely lower segment (below 4 µM), middle segment (4 µM to below 9 µM), upper segment (9 µM or more)

> print(dat)
                                    compound  category.label
 1  C=CS(=O)(=O)c1ccc(Oc2ccc(S(=O)(=O)C=C)cc2)cc1  middle segment
 2  CCN1/C(=C\C=C2\C(=O)N(c3ccccc3)C(=S)N2C)Sc2ccccc21  middle segment
 3  COC(CNC(=O)c1cc(C(=O)c2c(-c3c(Cl)cccc3Cl)noc2C)c[nH]1)OC   upper segment
 4  Cc1[nH]n(-c2ccccc2)c(=S)c1C=NCCCN=Cc1c(C)[nH]n(-c2ccccc2)c1=S   lower segment
 5  C/C(=N\NC(=O)c1cc(-c2cccs2)nc2ccccc12)c1ccccn1   lower segment
 6  O=[N+]([O-])c1cc([N+](=O)[O-])c2cc3ccccc3nc2c1   upper segment
 7  CC(C)N=C1CCCC1C(=S)SSC(=S)C1CCCC1=NC(C)C (centres undefined)   upper segment
 8  CC1(C)CC(=O)C(C=Nc2ccc(C(=O)c3ccccc3)cc2N=CC2=C(O)CC(C)(C)CC2=O)=C(O)C1  middle segment
 9  Cc1ccc(OCCN2C(=O)c3ccccc3C2=O)c([N+](=O)[O-])c1  middle segment
10  Cc1ccnc(N2C(=O)c3cccc4c([N+](=O)[O-])ccc(c34)C2=O)c1   lower segment
11    COc1ccc(OC)c(/C=C/c2ccc3cccc(O)c3n2)c1  middle segment
12  CC(=O)NC(=S)Nc1sc2c(c1C(N)=O)CCC(C)C2 (centres undefined)   upper segment
13  COc1ccc(NC(=O)/C(Cl)=C(/Cl)S(=O)(=O)Cc2ccc(C)cc2)cn1   lower segment
14  CCOC(=O)c1c(C)oc2c1c(C=NCc1ccccn1)c(O)c1ccccc12  middle segment
15         O=C(Nc1nc2c(F)cc(F)cc2s1)c1ccccn1   lower segment
16  CS(=O)(=O)c1ccc(C(=O)OCc2nnc(-c3ccccc3)o2)cc1[N+](=O)[O-]  middle segment
17          COc1cccc(-n2nc(C#N)c(Cl)cc2=O)c1   upper segment
18  O=C1c2ccccc2C(=O)N1OS(=O)(=O)c1ccc(F)cc1   upper segment
19   CCn1c(Cl)c(C=O)s/c1=N\S(=O)(=O)c1ccccc1   lower segment
20  O=C(Nc1nnc(-c2cccs2)o1)c1cccc(C(F)(F)F)c1   upper segment
21                  CN(C)c1nc(=NCc2ccco2)ss1   upper segment
22          CC(=O)Nc1ccc(NCC(=O)c2ccccc2)cc1   upper segment
23  CCN(c1ccccc1)S(=O)(=O)c1ccc(NC(=O)c2nc(S(C)(=O)=O)ncc2Cl)cc1   upper segment
24  C=C1C(=O)[C@]23C[C@H]1CCC2[C@@]1(C)C(C[C@@H]3O)[C@](C)(C(=O)OC)CC[C@@H]1OC(C)=O (some centres undefined)  middle segment
25              Cc1ccc(C(=O)Sc2cccccc2=O)cc1   lower segment
26  O=Cc1s/c(=N\S(=O)(=O)c2ccccc2)n(CCCCl)c1Cl   lower segment
27  CCO[C@@H]1OC(C(=O)N2CCN(Cc3ccccc3)CC2)=C[C@H](c2ccc(Br)cc2)[C@H]1CCCO   upper segment
28                  CCOC(=O)CSc1cccc2cccnc12  middle segment
29              Cc1cccnc1Nc1nc(-c2ccccn2)cs1   lower segment
30  FC(F)(F)c1cnc(NNC(=S)Nc2ccccc2Cl)c(Cl)c1   upper segment
31           O=[N+]([O-])/C=C/c1c(Cl)cccc1Cl   upper segment
32  C/C(=N\NC(=O)C(C)Oc1ccc([N+](=O)[O-])cc1)c1ccccn1 (centres undefined)   lower segment
33  COc1ccc(C(=O)/C=C/C(=O)N(CC(=O)NC2CCCCC2)Cc2cccs2)c(O)c1   upper segment
34  COc1ccc(Nc2ccc([N+](=O)[O-])c3nonc23)c(OC)c1   upper segment
35          O=C(Nc1nccs1)c1sc2cc(Cl)ccc2c1Cl   upper segment
36               Cc1cccc(CSc2cccc3cccnc23)c1  middle segment
37  C=C1C(=O)c2sccc2C(c2ccc(OC)c(OC)c2)C1COC(C)=O (centres undefined)  middle segment
38  CCN(CC)CC(C)(C)C(=O)/C=C/c1ccc(/C=C/C(=O)C(C)(C)CN(CC)CC)cc1   lower segment
39  COc1ccc(OC)c2sc(N(CCCN(C)C)C(=O)CCS(=O)(=O)c3ccccc3)nc12   upper segment
40                 Fc1ccc(NC(=S)Nc2nccs2)cc1   upper segment
41  CCC(=O)OCCNc1cc(Sc2nccn2C)c2nonc2c1[N+](=O)[O-]   lower segment
